# System: peptide-forming enzyme (Mono S fraction enzyme)
# assay_remarks: Enzyme substrate specificity (1)-(10), (13), (14): peptide production
# Assay type: biochemical, Empedobacter brevis
# assay_conditions: β-amino acid ester or β-amino acid; carboxy component 100 mM, amine component 150 mM, pH 9.0, 25° C., 3 hours
# Experimental: Ester specificity was examined in the case of using L-amino acid ester for the carboxy component. 2 μl of the same enzyme fraction as used in Example 5 was added to 100 μl of 100 mM borate buffer (pH 9.0) containing the carboxy components indicated in Table 4 at 100 mM, 200 mM L-glutamine and 10 mM EDTA, and allowed to react at 25° C. for 2 hours. HCl represents hydrochloride in Table 4. […]
value_kind: Formed peptide

> print(dat)
                                   compound      value.kind  result
1  CC(N)C(=O)NCCC(=O)O (stereo not drawn) [Ala-β-Ala]  Formed peptide  7.7 mM
2  C[C@@H](O)[C@H](N)C(=O)NCCC(=O)O [Thr-β-Ala]  Formed peptide  3.2 mM
3           NCCC(=O)NCCC(=O)O [β-Ala-β-Ala]  Formed peptide  0.2 mM
4   C[C@H](NC(=O)CCN)C(=O)O [β-Ala-L-α-Ala]  Formed peptide      tr

###

# Test system: peptide-forming enzyme (Mono S fraction enzyme)
# assay_remarks: Enzyme substrate specificity (1)-(10), (13), (14): peptide production
# Assay type: biochemical, Empedobacter brevis
# assay_conditions: β-amino acid ester or β-amino acid; carboxy component 100 mM, amine component 150 mM, pH 9.0, 25° C., 3 hours
Threshold 1 mM: Formed peptide strictly smaller gives 1, otherwise 0.

> print(dat)
                                   compound  group
1        NCCC(=O)NC(CO)C(=O)O [β-Ala-L-Ser]      0
2  NCC(=O)NC(CC(=O)O)c1ccccc1 (stereo not drawn) [Gly-β-Phe]      1
3  C[C@@H](O)[C@H](N)C(=O)NC(CC(=O)O)c1ccccc1 (stereo partly drawn) [Thr-β-Phe]      0
4  NCCC(=O)N[C@@H](CCC(N)=O)C(=O)O [β-Ala-L-Gln]      1

Is Formed peptide strictly under 1 mM for the entry CC(N)C(=O)NC(CC(=O)O)c1ccccc1 (stereo not drawn) [Ala-β-Phe] ?
0

Dear colleague, could you confirm whether Formed peptide of NCC(=O)NCCC(=O)O [Gly-β-Ala] falls below 1 mM? Thanks.
0

###

# Tested on: microbial cells of Empedobacter brevis strain FERM BP-8113
# assay_remarks: Production of peptide using microbial cells
# Assay type: cell-based
# assay_conditions: 1 mL cell suspension (100 g/L) + 1 mL buffer with 200 mM carboxy component (hydrochloride) and 400 mM amino acid; borate buffer pH 9.0, 10 mM EDTA; 18° C., 2 hours
Where a SMILES comes first, the peptide text is derived from it.
Entry flag: Yes if Formed peptide reaches 30 mM; No if it does not.

Completed entries (count: 4):
> print(dat)
                                   molecule                     target.or.test.system  group
1  N[C@@H](CO)C(=O)N[C@@H](CO)C(=O)O [L-Ser-L-Ser] (H-Ser-Ser-OH)  microbial cells of Empedobacter brevis strain FERM BP-8113     No
2  CC(C)C[C@H](NC(=O)[C@H](C)N)C(=O)O [L-Ala-L-Leu] (H-Ala-Leu-OH)  microbial cells of Empedobacter brevis strain FERM BP-8113    Yes
3  C[C@H](N)C(=O)N[C@@H](CCCN=C(N)N)C(=O)O [L-Ala-L-Arg] (H-Ala-Arg-OH)  microbial cells of Empedobacter brevis strain FERM BP-8113    Yes
4  C[C@H](N)C(=O)N[C@@H](CCC(N)=O)C(=O)O [L-Ala-L-Gln, L-alanyl-L-glutamine] (H-Ala-Gln-OH)  microbial cells of Empedobacter brevis strain FERM BP-8113    Yes

# evaluate next
Does the molecule CSCC[C@H](NC(=O)[C@@H](N)C(C)C)C(=O)O [L-Val-L-Met] (H-Val-Met-OH) have recorded Formed peptide that is 30 mM or more?
No
